The origin of these recorded values is patent US20240239775A1.

Target: FXR (Homo sapiens, UniProt Q96RI1)
Construct: 5 μL of 20 nM FXR-LBD Complete Coregulator buffer G; purchased ThermoFisher PV4833
Sequence (Q96RI1 262-486 limits assumed): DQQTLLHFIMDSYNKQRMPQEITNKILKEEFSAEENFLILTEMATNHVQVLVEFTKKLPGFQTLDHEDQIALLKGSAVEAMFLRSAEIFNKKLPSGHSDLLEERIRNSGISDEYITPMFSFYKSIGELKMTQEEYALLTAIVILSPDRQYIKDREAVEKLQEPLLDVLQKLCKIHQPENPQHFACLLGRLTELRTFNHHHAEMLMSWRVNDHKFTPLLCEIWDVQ
Assay: FXR antagonist screening by TR-FRET (LanthaScreen TR-FRET FXR co-activation assay kit)
Format: biochemical
Details: Table 1.1, FXR antagonistic activity; TR-FRET with CDCA; geometric means of at least two independent runs
pIC50: −log10 of the molar value.
endpoint-name: pIC50

Specify pIC50 for Cc1c(C(=O)O)oc2ccc(S(=O)(=O)N(CCc3ccccc3)Cc3ccc(C(=O)OC(C)(C)C)cc3)cc12 and stop.
4.30 to 5.00

Specify pIC50 for CCOC(=O)c1oc2ccc(S(=O)(=O)N(CCc3ccccc3)Cc3c(C)cccc3C)cc2c1C and stop.
4.00 to 4.30

Specify pIC50 for CCOC(=O)c1oc2ccc(S(=O)(=O)N(CCc3ccccc3)Cc3c(F)cccc3Cl)cc2c1C and stop.
4.00 to 4.30

Specify pIC50 for Cc1c(C(=O)O)oc2ccc(S(=O)(=O)N(CCc3ccccc3)c3ccc(Cc4ccccc4)cc3)cc12 and stop.
5.00 to 7.00

Specify pIC50 for CCOC(=O)c1oc2ccc(S(=O)(=O)N(CCc3ccccc3)Cc3ccc(C#N)cc3F)cc2c1C and stop.
4.00 to 4.30

Specify pIC50 for Cc1c(C(=O)O)oc2ccc(S(=O)(=O)N(CCc3ccccc3)Cc3cccc([N+](=O)[O-])c3)cc12 and stop.
4.30 to 5.00

Specify pIC50 for Cc1c(C(=O)O)oc2ccc(S(=O)(=O)N(CCc3ccccc3)Cc3ccc(N4CCOCC4)cc3)cc12 and stop.
4.00 to 4.30

----------
Molecular target: FXR (Homo sapiens, UniProt Q96RI1)
Construct: 5 μL of 20 nM FXR-LBD Complete Coregulator buffer G; purchased ThermoFisher PV4833
Sequence (Q96RI1 262-486 limits assumed): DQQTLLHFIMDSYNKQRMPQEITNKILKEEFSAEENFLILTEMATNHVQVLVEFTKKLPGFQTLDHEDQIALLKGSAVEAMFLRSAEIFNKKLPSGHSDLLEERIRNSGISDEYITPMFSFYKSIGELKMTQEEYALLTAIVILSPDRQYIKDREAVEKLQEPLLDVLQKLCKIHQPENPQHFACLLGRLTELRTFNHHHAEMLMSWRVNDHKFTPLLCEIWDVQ
Assay: FXR antagonist screening by TR-FRET (LanthaScreen TR-FRET FXR co-activation assay kit)
Format: biochemical
Conditions: Table 1.1, FXR antagonistic activity; TR-FRET with CDCA; geometric means of at least two independent runs
endpoint-name: IC50

Specify IC50 for Cc1c(C(=O)O)oc2ccc(S(=O)(=O)N(CCc3ccccc3)Cc3ccccc3N3CCNCC3)cc12 and stop.
50 to 100 µM

Specify IC50 for Cc1c(C(=O)O)oc2ccc(S(=O)(=O)N(CCc3ccccc3)Cc3cccc(C(F)(F)F)c3)cc12 and stop.
50 to 100 µM

Specify IC50 for CC(=O)N1CCN(c2ccccc2CN(CCc2ccccc2)S(=O)(=O)c2ccc3oc(C(=O)O)c(C)c3c2)CC1 and stop.
10 to 50 µM

Specify IC50 for CCOC(=O)c1oc2ccc(S(=O)(=O)N(CCc3ccccc3)Cc3ccc(C(F)(F)F)cc3)cc2c1C and stop.
50 to 100 µM

Specify IC50 for CCOC(=O)c1oc2ccc(S(=O)(=O)N(CCc3ccccc3)c3ccccc3N3CCN(C(C)=O)CC3)cc2c1C and stop.
50 to 100 µM

Specify IC50 for Cc1c(C(=O)O)oc2ccc(S(=O)(=O)N(CCc3ccccc3)c3ccc(N4CCN(C(=O)CC(C)(C)C)CC4)cc3)cc12 and stop.
10 to 50 µM

Specify IC50 for Cc1c(C(=O)O)oc2ccc(S(=O)(=O)N(CCc3ccccc3)Cc3ccc(Br)cc3F)cc12 and stop.
10 to 50 µM

----------
System: HepG2 cells
Experiment: Testing of TC/TG in HepG2 cells incubated with FFA (oleic acid and palmitate)
Assay type: cell-based, human
Settings: 20 μM compound, 0.5 mmol/L FFA, 24 h, FIG. 1A
endpoint-name: reduction of the increase in TG level of HepG2 cell induced by oleic acid and palmitate

C/C=C1\C(=O)C[C@H]2[C@@H]3CCC4=CC(=O)CC[C@]4(C)[C@H]3CC[C@]12C [Z-GS]: significantly reduce
CC(=O)C1=CC[C@H]2[C@@H]3CC=C4C[C@@H](O)CC[C@]4(C)[C@H]3CC[C@]12C [Centatin]: significantly reduce
Cc1ccc(C)c(OCCCC(C)(C)C(=O)NCC(=O)c2ccc(O)cc2)c1 [SIPI-7623]: significantly reduce
Cc1c(C(=O)O)oc2ccc(S(=O)(=O)N(CCc3ccccc3)c3ccccc3N3CCN(C(=O)c4ccccc4)CC3)cc12 [Example F27-S96]: significantly reduce

----------
Record form. Attribute: IC50. Fill in for each entry.
Biological target: FXR (Homo sapiens, UniProt Q96RI1)
Construct: 5 μL of 20 nM FXR-LBD Complete Coregulator buffer G; purchased ThermoFisher PV4833
Sequence (Q96RI1 262-486 limits assumed): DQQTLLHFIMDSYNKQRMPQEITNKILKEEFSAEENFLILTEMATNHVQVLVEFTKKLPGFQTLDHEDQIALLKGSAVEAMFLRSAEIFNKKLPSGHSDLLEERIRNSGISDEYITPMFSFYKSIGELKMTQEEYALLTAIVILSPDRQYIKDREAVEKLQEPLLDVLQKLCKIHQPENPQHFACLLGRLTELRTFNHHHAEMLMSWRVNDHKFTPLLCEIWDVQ
Assay: FXR antagonist screening by TR-FRET (LanthaScreen TR-FRET FXR co-activation assay kit)
Assay type: biochemical
Settings: Table 1.2, FXR antagonistic activity; TR-FRET with CDCA; geometric means of at least two independent runs

Specify IC50 for CCOC(=O)c1oc2ccc(S(=O)(=O)N(CCc3ccccc3)c3ccccc3N3CCN(C(=O)c4sccc4Br)C[C@H]3C)cc2c1C [Example M10-153] and stop.
50 to 100 µM

Specify IC50 for CCOC(=O)c1sc2ccc(S(=O)(=O)N(CCc3cccc(OC)c3)c3ccccc3N3CCN(C(=O)c4sccc4Br)CC3)cc2c1C [Example M10-170] and stop.
50 to 100 µM

Specify IC50 for Cc1cc(C)c(C(=O)N2CCN(c3ccccc3N(CCc3ccccc3)S(=O)(=O)c3ccc4oc(C(=O)O)c(C)c4c3)CC2)c(C)c1 [Example F27-S135] and stop.
0.1 to 10 µM

Specify IC50 for COc1cccc(OC)c1C(=O)N1CCN(c2ccccc2N(CCc2ccccc2)S(=O)(=O)c2ccc3oc(C(=O)O)c(C)c3c2)CC1 [Example F27-S133] and stop.
0.1 to 10 µM

Specify IC50 for Cc1ccc(C(=O)N2CCN(c3ccccc3N(CCc3ccccc3)S(=O)(=O)c3ccc4oc(C(=O)O)c(C)c4c3)CC2)cc1 [Example F27-S106] and stop.
0.1 to 10 µM

Specify IC50 for CCOC(=O)c1sc2ccc(S(=O)(=O)N(CCc3ccccc3Cl)c3ccccc3N3CCN(C(=O)c4sccc4Br)CC3)cc2c1C [Example M10-172] and stop.
50 to 100 µM

----------
Molecular target: FXR (Homo sapiens, UniProt Q96RI1)
Construct: 5 μL of 20 nM FXR-LBD Complete Coregulator buffer G; purchased ThermoFisher PV4833
Experiment: FXR antagonist screening by TR-FRET (LanthaScreen TR-FRET FXR co-activation assay kit)
Type: biochemical
Conditions: Table 1.2, FXR antagonistic activity; TR-FRET with CDCA; geometric means of at least two independent runs
Record form. Attribute: IC50. Fill in for each entry.

Output reported IC50 of the molecule Cc1c(C(=O)O)oc2ccc(S(=O)(=O)N(CCc3ccccc3)c3ccccc3N3CCN(C(=O)c4ccccn4)CC3)cc12 on FXR (Homo sapiens, UniProt Q96RI1).
0.1 to 10 µM

Output reported IC50 of the molecule Cc1c(C(=O)O)oc2ccc(S(=O)(=O)N(CCc3ccccc3)c3ccccc3N3CCC4(CC3)CN(C(=O)c3sccc3Br)C4)cc12 on FXR (Homo sapiens, UniProt Q96RI1).
0.1 to 10 µM

Output reported IC50 of the molecule CCOC(=O)c1oc2ccc(S(=O)(=O)N(CCc3ccccc3)c3ccccc3N3CCN(C(=O)c4sccc4Br)CC3)cc2c1C on FXR (Homo sapiens, UniProt Q96RI1).
50 to 100 µM

----------
Target: FXR (Homo sapiens)
Construct: 5 μL of 20 nM FXR-LBD Complete Coregulator buffer G; purchased ThermoFisher PV4833
Sequence (Q96RI1 262-486 limits assumed): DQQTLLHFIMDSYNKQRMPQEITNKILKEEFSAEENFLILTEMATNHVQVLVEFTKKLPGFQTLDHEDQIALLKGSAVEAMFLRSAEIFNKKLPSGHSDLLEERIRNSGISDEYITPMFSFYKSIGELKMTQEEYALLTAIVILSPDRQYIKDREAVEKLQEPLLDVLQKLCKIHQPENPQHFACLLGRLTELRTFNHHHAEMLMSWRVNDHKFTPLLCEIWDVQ
Test: FXR antagonist screening by TR-FRET (LanthaScreen TR-FRET FXR co-activation assay kit)
Format: biochemical
Settings: Table 1.2, FXR antagonistic activity; TR-FRET with CDCA; geometric means of at least two independent runs
endpoint-name: IC50

Specify IC50 for CCOC(=O)c1oc2ccc(S(=O)(=O)N(CCc3ccccc3)c3ccccc3N3CCN(C(=O)c4c(C)cc(C)cc4C)CC3)cc2c1C [Example M10-135] and stop.
50 to 100 µM

Specify IC50 for Cc1c(C(=O)O)sc2ccc(S(=O)(=O)N(CCc3ccc(C#N)cc3)c3ccccc3N3CCN(C(=O)c4sccc4Br)CC3)cc12 [Example F27-S169] and stop.
0.1 to 10 µM

Specify IC50 for Cc1ccccc1C(=O)N1CCN(c2ccccc2N(CCc2ccccc2)S(=O)(=O)c2ccc3oc(C(=O)O)c(C)c3c2)CC1 [Example F27-S107] and stop.
0.1 to 10 µM

Specify IC50 for C/C=C/C(=O)N1CCN(c2ccccc2N(CCc2ccccc2)S(=O)(=O)c2ccc3oc(C(=O)OCC)c(C)c3c2)CC1 [Example M10-120] and stop.
50 to 100 µM

Specify IC50 for Cc1c(C(=O)O)sc2ccc(S(=O)(=O)N(CCCc3ccccc3)c3ccccc3N3CCN(C(=O)c4sccc4Br)CC3)cc12 [Example F27-S176] and stop.
0.1 to 10 µM

Specify IC50 for Cc1c(C(=O)O)oc2ccc(S(=O)(=O)N(CCc3ccccc3)c3ccccc3N3CCN(C(=O)c4c[nH]cn4)CC3)cc12 [Example F27-S144] and stop.
0.1 to 10 µM

Specify IC50 for Cc1c(C(=O)O)oc2ccc(S(=O)(=O)N(CCc3ccccc3)c3ccccc3N3CCN(C(=O)c4sccc4Br)C[C@@H]3C)cc12 [Example F27-S152] and stop.
0.1 to 10 µM

Specify IC50 for CCOC(=O)c1oc2ccc(S(=O)(=O)N(CCc3ccccc3)c3ccccc3N3CCN(C(=O)c4ccc(C)cc4)CC3)cc2c1C [Example M10-106] and stop.
50 to 100 µM

Specify IC50 for CCOC(=O)c1oc2ccc(S(=O)(=O)N(CCc3ccccc3)c3ccccc3N3CCN(C(=O)c4sccc4Cl)CC3)cc2c1C [Example M10-126] and stop.
50 to 100 µM

Specify IC50 for CCOC(=O)c1oc2ccc(S(=O)(=O)N(CCc3ccccc3)c3ccccc3N3CCN(C(=O)c4ccccn4)CC3)cc2c1C [Example M10-117] and stop.
50 to 100 µM

Specify IC50 for Cc1c(C(=O)O)sc2ccc(S(=O)(=O)Nc3ccccc3N3CCN(C(=O)c4sccc4Br)CC3)cc12 [Example F27-S177] and stop.
0.1 to 10 µM

Specify IC50 for CCOC(=O)c1oc2cc(S(=O)(=O)N(CCc3ccccc3)c3ccccc3N3CCN(C(=O)c4sccc4Br)CC3)ccc2c1C [Example M10-163] and stop.
50 to 100 µM

Specify IC50 for Cc1c(C(=O)O)sc2ccc(S(=O)(=O)N(CCc3ccc(C(F)(F)F)cc3)c3ccccc3N3CCN(C(=O)c4sccc4Br)CC3)cc12 [Example F27-S170] and stop.
0.1 to 10 µM
